SUBJECT_OF_TEST: T1, human CD3 E&D complex protein (Sino Biological Inc., CT026H0323H) (human, UniProt P07766 23-126; P04234 22-105)
T1 construct: bought heterodimer; also called human CD3 protein (CT026H0323H)
TEST_DETAILS: BLI, antibody on sensor
Strictly below 0.9 nM in Kd: TRUE. Otherwise: FALSE.

Here's what some known entries look like.
>  <BINDER>
hzsp34.25 (antibody, human IgG1, lambda, L234A L235A, V domains shown, IgG1 L234A L235A, lambda) VH: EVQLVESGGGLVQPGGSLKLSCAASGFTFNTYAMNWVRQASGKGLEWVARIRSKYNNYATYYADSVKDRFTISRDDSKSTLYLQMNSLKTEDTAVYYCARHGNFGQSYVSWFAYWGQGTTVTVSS VL: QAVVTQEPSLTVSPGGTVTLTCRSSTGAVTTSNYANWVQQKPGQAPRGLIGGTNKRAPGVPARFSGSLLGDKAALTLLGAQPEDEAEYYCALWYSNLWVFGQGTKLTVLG

>  <LABEL_CLASS>
FALSE

$$$$
>  <BINDER>
sp34 (antibody, human IgG1, lambda, L234A L235A, V domains shown, mouse variable regions on human IgG1 L234A L235A and lambda constant regions; also called chimeric antibody sp34; mouse sp34) VH: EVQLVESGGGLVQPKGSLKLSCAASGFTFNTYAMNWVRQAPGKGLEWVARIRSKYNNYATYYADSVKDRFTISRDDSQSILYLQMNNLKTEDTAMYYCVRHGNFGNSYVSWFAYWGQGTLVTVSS VL: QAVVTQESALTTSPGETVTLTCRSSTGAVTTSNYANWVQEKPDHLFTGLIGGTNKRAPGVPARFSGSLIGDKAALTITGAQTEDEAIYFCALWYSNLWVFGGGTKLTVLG

>  <LABEL_CLASS>
FALSE

$$$$
>  <BINDER>
hzsp34.19 (antibody, human IgG1, lambda, L234A L235A, V domains shown, IgG1 L234A L235A, lambda) VH: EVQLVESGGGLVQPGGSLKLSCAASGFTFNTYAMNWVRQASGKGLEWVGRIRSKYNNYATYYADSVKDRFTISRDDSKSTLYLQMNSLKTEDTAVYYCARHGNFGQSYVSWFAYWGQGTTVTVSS VL: QAVVTQEPSLTVSPGGTVTLTCRSSTGAVTTSNYANWVQQKPGQAPRGLIGGTNKRAPGVPARFSGSLLGGKAALTLLGAQPEDEAEYYCALWYSNLWVFGQGTKLTVLG

>  <LABEL_CLASS>
TRUE

$$$$
>  <BINDER>
hzsp34.22 (antibody, human IgG1, lambda, L234A L235A, V domains shown, IgG1 L234A L235A, lambda) VH: EVQLVESGGGLVQPGGSLKLSCAASGFTFNTYAMNWVRQASGKGLEWVGRIRSKYNNYATYYADSVKDRFTISRDDSKNTLYLQMNSLKTEDTAVYYCARHGNFGNSYVSWFAYWGQGTTVTVSS VL: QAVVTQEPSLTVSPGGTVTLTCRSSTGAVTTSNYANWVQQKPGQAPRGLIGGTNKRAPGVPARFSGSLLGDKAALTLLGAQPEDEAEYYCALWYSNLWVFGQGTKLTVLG

>  <LABEL_CLASS>
TRUE

$$$$

Read the next record carefully.
Is it true that Kd reported for hzsp34.44 (antibody, human IgG1, kappa, L234A L235A, V domains shown, IgG1 L234A L235A, kappa) VH: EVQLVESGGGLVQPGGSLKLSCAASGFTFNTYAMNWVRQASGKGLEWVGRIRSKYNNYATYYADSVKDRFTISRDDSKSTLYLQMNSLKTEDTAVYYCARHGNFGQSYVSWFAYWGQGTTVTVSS VL: EIVMTQSPATLSVSPGERATLSCRSSTGAVTTSNYANWVQQKPGQAPRGLIGGTNKRAPGVPARFSGSGSGDEFTLTISSLQSEDFAVYYCALWYSNLWVFGQGTKLTVLR is less than 0.9 nM?
FALSE
